Tested on: SNB-75
measurementProtocol: NCI tumour cell line growth inhibition, 48 h
Activity calls are given as the source filed them. Cut-off read from the data, not from the text of the source: active = GI50 up to about 1.1 µM and inactive = higher.
experimentalReadout: GI50

Asked: For the compound NC(CCCCCP(=O)(c1ccccc1)C1C=CC=CC1)C(=O)O (stereo unspecified) , what GI50 is on record?
Given back: > 100 µM (inactive)

Asked: Now the same for CC1=C(C#N)c2nc3ccccc3n2C(=O)C1(C)CCO (stereo unspecified)
Given back: > 100 µM (inactive)

Asked: Now the same for C[N+](C)(C)CC1CCC/C1=N\OC(=O)c1ccccc1 (stereo unspecified)
Given back: > 100 µM (inactive)

Asked: Now the same for NC(=O)/C=C/c1c[nH]c2nccnc12
Given back: 1.78 µM (inactive)

Asked: Now the same for CN(C)c1ccc(C(c2ccc(Cl)cc2)c2ccc(N(C)C)cc2)cc1
Given back: > 100 µM (inactive)

Asked: Now the same for O=C1NC(Cc2ccc(O)cc2)C(=O)NC1Cc1ccc(O)cc1 (stereo unspecified)
Given back: 28.2 µM (inactive)

Asked: Now the same for CC(=O)c1ccc(NC(=O)/C(=N\NC(N)=O)C(C#N)CC(C)(C)C=O)cc1 (stereo unspecified)
Given back: > 100 µM (inactive)

Asked: Now the same for COC(=O)C(=O)C(C(=O)C(=O)Nc1ccc(C)cc1)c1nc2ccc(C(=O)c3ccccc3)cc2nc1O (stereo unspecified)
Given back: 22.3 µM (inactive)

Asked: Now the same for O=C(NN1C(=O)/C(=C/c2ccc(Cl)cc2)N=C1c1ccccc1)c1c(Cl)c(Cl)c(Cl)c(Cl)c1-c1nc2ccccc2[nH]1
Given back: 12.2 µM (inactive)

Asked: Now the same for O=C(O)CSC1=NCCN1
Given back: > 100 µM (inactive)

Asked: Now the same for O=C(c1ccccc1O)c1cc(-c2ncc3c(=O)c4ccccc4oc3n2)c(-c2ccccc2O)[nH]c1=O
Given back: 19.2 µM (inactive)
